# testedOn: HIV-1 PVO.4 Env (HIV-1)
# methodSummary: cell-based or functional assay
measureName: IC50, TZM-bl pseudovirus neutralization
Please report the result as a number followed by the unit.

Can you look up the measured IC50, TZM-bl pseudovirus neutralization of 1456_A12 (PG16) (TCN-117) (antibody, V domains shown) VH: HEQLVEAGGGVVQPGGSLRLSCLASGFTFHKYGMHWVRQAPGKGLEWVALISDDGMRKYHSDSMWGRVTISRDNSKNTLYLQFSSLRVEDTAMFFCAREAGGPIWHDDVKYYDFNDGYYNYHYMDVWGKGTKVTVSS VL: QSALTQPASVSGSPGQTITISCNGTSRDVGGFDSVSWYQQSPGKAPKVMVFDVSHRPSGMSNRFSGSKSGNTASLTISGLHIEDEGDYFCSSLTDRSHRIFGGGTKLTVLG for me?
10.4 µg/mL
